# cytotoxicity at 70.5 h listing for each entry below
# assay.summary: Human HepG2 cell viability assay in 384 well format
# Assay type: toxicity, cell-based
# Set-up: dose 125 nL, time 70.5 hour; concentration not given beside the values
# test.parameters: HepG2 cells, read-out: Inhibition
readout.label: cytotoxicity at 70.5 h (%)

INSERT INTO measurements (molecule, measured_number) VALUES
  ('O=C(CO)N1CCCC(N2CCN(c3ccccc3F)CC2)C1 (stereo unspecified)', -0.739),
  ('COc1cc(N2C[C@@H]3COC[C@]3(COc3ccc(C#N)cn3)C2)ncn1', 7.01),
  ('CCS(=O)(=O)N1CC[C@H]2CO[C@H](CN(C)C)[C@H]2C1', 9.44),
  ('Cn1ccc(C(=O)N2CCCC(n3cncn3)C2)cc1=O (stereo unspecified)', -10.3),
  ('CCCS(=O)(=O)NCc1ncc(C)c(OC)c1C', 9.44),
  ('CN(C)C(=O)CN1CCOCC2(CCN(c3ncc(F)cn3)CC2)C1', -6.93),
  ('O=C([C@H]1C[C@H]2OCC[C@H]2N(C(=O)c2ccncc2)C1)N1CCCCO1', 3.71),
  ('CCn1ccnc1CN1CCCN(C(=O)c2cccc(C#N)c2)CC1', -15.8),
  ('CCc1nc(C)sc1C(=O)N1CCN(c2ncccc2C)CC1', -4.24),
  ('CCN(CC)C(=O)c1cnc(Sc2nccn2C)c(Cl)c1', -3.32),
  ('CCN(Cc1ccoc1)C(=O)C1CCN(C(=O)OC(C)(C)C)C1 (stereo unspecified)', 18.9);

====

# assay.summary: Human HepG2 cell viability assay in 384 well format
# Type: toxicity, cell-based
# Design: dose 125 nL, time 70.5 hour; concentration not given beside the values
# test.parameters: HepG2 cells, read-out: Inhibition
# cytotoxicity at 70.5 h listing for each entry below
readout.label: cytotoxicity at 70.5 h (%)

INSERT INTO measurements (compound, readout_label, units, measured_number) VALUES
  ('Cn1cnc2c1C(C(=O)N1CCOCC1)N(C(=O)c1ccccc1)CC2 (stereo unspecified)', 'cytotoxicity at 70.5 h', '%', -4.08),
  ('CC(C)(CNc1ccc(C#N)c(C(F)(F)F)c1)C(N)=O', 'cytotoxicity at 70.5 h', '%', 2.06),
  ('CN(Cc1nc(C2CC2)no1)C1CCCN(c2cccnn2)C1 (stereo unspecified)', 'cytotoxicity at 70.5 h', '%', -19.7),
  ('CC(C)CCN1C2(CCN(C(=O)CN(C)C)C2)c2ccccc2S1(=O)=O (stereo unspecified)', 'cytotoxicity at 70.5 h', '%', -5.18),
  ('Nc1cnc(-c2cccc3c2CCNC3)cn1', 'cytotoxicity at 70.5 h', '%', -15.3),
  ('CCCNC(=O)Cn1nc(C(C)C)c2cnn(C(C)(C)C)c2c1=O', 'cytotoxicity at 70.5 h', '%', -0.765);

====

# assay.summary: Human HepG2 cell viability assay in 384 well format
# Assay type: toxicity, cell-based
# Parameters: dose 125 nL, time 70.5 hour; concentration not given beside the values
# test.parameters: HepG2 cells, read-out: Inhibition
# cytotoxicity at 70.5 h listing for each entry below
readout.label: cytotoxicity at 70.5 h (%)

INSERT INTO measurements (compound, readout_label, measured_number) VALUES
  ('O=C(C1CCCC1)N1CCCC(c2cccc(-n3ccnc3)n2)C1 (stereo unspecified)', 'cytotoxicity at 70.5 h', 16.6),
  ('CCOCCN1CCN(Cc2cccc(C(=O)N(C)C)c2)CC1', 'cytotoxicity at 70.5 h', 40.4),
  ('O=C(C1CCCC1)N1C[C@@H]2CCN(c3cnccn3)C[C@@H]2C1', 'cytotoxicity at 70.5 h', -1.88),
  ('Cc1noc(Cl)c1CC(=O)N1CCCC(n2cccn2)C1 (stereo unspecified)', 'cytotoxicity at 70.5 h', -4.55),
  ('CNS(=O)(=O)c1ccc(C(=O)N2CCCC2c2ccncc2)o1 (stereo unspecified)', 'cytotoxicity at 70.5 h', -2.81),
  ('O=C1NCCO[C@H]2CN(C(=O)c3cccs3)CC[C@@H]12', 'cytotoxicity at 70.5 h', 20.1),
  ('Cc1nccn1-c1ccc(NC(=O)C2CCCN2Cc2c[nH]cn2)cc1 (stereo unspecified)', 'cytotoxicity at 70.5 h', 14.9),
  ('O=C(Cc1csc(-c2ncccn2)n1)N1CCN2CCCCC2C1 (stereo unspecified)', 'cytotoxicity at 70.5 h', 7.23),
  ('Cc1cc(CN(C)C(=O)NCC2CCS(=O)(=O)C2)no1 (stereo unspecified)', 'cytotoxicity at 70.5 h', -9.21),
  ('CC(C)c1cc(NC(=O)CN2CCc3nn(C)c(=O)cc3C2)on1', 'cytotoxicity at 70.5 h', -4.73),
  ('Cc1noc(C)c1CN1CC2(CCCCN2C)CC1=O (stereo unspecified)', 'cytotoxicity at 70.5 h', 17.1);

====

# assay.summary: Human HepG2 cell viability assay in 384 well format
# Assay type: toxicity, cell-based
# Set-up: dose 125 nL, time 70.5 hour; concentration not given beside the values
# test.parameters: HepG2 cells, read-out: Inhibition
readout.label: cytotoxicity at 70.5 h (%)

INSERT INTO measurements (compound, measured_number) VALUES
  ('COCCN1CCN(Cc2ccncc2)[C@H]2CS(=O)(=O)C[C@H]21', -6.81),
  ('CCN(CC)C(=O)CS(=O)(=O)c1cc(OC)c(OC)cc1C', -9.5),
  ('CCNc1nc(C)c(C(=O)N(C)Cc2nc(CC)no2)s1', -34.8),
  ('Cc1nc(NC(=O)CN2C(=O)c3ccccc3NC2C(C)C)sc1C (stereo unspecified)', -11.4),
  ('CCc1nnc(CN2CCc3ccc(S(N)(=O)=O)cc32)o1', -0.999),
  ('O=C(COCC(F)(F)C(F)F)N1CCC2(CCCN(CCO)C2=O)C1 (stereo unspecified)', -2.98),
  ('COCCN(CCC#N)S(=O)(=O)c1ccc(F)cc1F', 0.44),
  ('Cc1ccc2c(c1)C(=O)NCC1(CCN(C(=O)c3sccc3C)CC1)O2', -5.39),
  ('CC(=O)N[C@@H]1CN(c2nc(CO)cs2)C[C@H]1c1ccc(C)o1', -12.8),
  ('COc1cc(CNC(=O)Nc2nnc(C(C)C)s2)ccn1', 1.23),
  ('CC(NCc1cccc(S(=O)(=O)N(C)C)c1)c1ccccn1 (stereo unspecified)', -6.92);

====

# cytotoxicity at 70.5 h listing for each entry below
# assay.summary: Human HepG2 cell viability assay in 384 well format
# Format: toxicity, cell-based
# Set-up: dose 125 nL, time 70.5 hour; concentration not given beside the values
# test.parameters: HepG2 cells, read-out: Inhibition
readout.label: cytotoxicity at 70.5 h (%)

INSERT INTO measurements (compound, readout_label, measured_number) VALUES
  ('Cc1noc(C(C)N2CCc3[nH]c4ccc(Cl)cc4c3C2)n1 (stereo unspecified)', 'cytotoxicity at 70.5 h', -8.97),
  ('c1cnc(N2C[C@@H]3COC[C@]3(COCC3CCCC3)C2)nc1', 'cytotoxicity at 70.5 h', -14.8),
  ('CCC[C@@H]1CN(Cc2ccc3c(c2)OCCO3)C[C@H]1C(=O)O', 'cytotoxicity at 70.5 h', -0.0956),
  ('Cc1cc(=O)n(C)cc1NC(=O)Cc1ccc(C(F)(F)F)cc1', 'cytotoxicity at 70.5 h', 0.135),
  ('Cc1cc(NC(=O)NCc2ccc(S(=O)(=O)N3CCCC3)s2)no1', 'cytotoxicity at 70.5 h', -7.64),
  ('COc1ccc2c(C)c(C(=O)NC3CCN(S(C)(=O)=O)CC3)oc2c1', 'cytotoxicity at 70.5 h', -2.46),
  ('CNC(=O)CS(=O)(=O)Cc1coc(-c2cccc(F)c2)n1', 'cytotoxicity at 70.5 h', -8.64),
  ('O=C(c1cncs1)N1CCC(c2cnccn2)CC1', 'cytotoxicity at 70.5 h', -8.41),
  ('COCCOCC(=O)N1C[C@H]2CC[C@@H]1CN(C1Cc3ccccc3C1)C2', 'cytotoxicity at 70.5 h', -9.96),
  ('N[C@H]1CN(C(=O)CCc2ccccn2)C[C@@H]1c1ccccc1', 'cytotoxicity at 70.5 h', 4.91),
  ('Cn1ncc(C(=O)OCC2CCN(c3ccccc3)C2)c1C(F)F (stereo unspecified)', 'cytotoxicity at 70.5 h', -3.5);

====

# assay.summary: Human HepG2 cell viability assay in 384 well format
# Format: toxicity, cell-based
# Design: dose 125 nL, time 70.5 hour; concentration not given beside the values
# test.parameters: HepG2 cells, read-out: Inhibition
readout.label: cytotoxicity at 70.5 h (%)

INSERT INTO assay_data (molecule, readout_label, units, measured_number) VALUES
  ('CN(C)c1cc2c(nn1)CCN(C(=O)c1cc3c(s1)CCC3)C2', 'cytotoxicity at 70.5 h', '%', 8.88),
  ('COc1cccc(-c2nccnc2C2CCN(C(C)=O)CC2)c1', 'cytotoxicity at 70.5 h', '%', -8.61),
  ('CN(C)CCOc1ccc(N(C)S(=O)(=O)c2cnn(C)c2)cc1', 'cytotoxicity at 70.5 h', '%', -1.43),
  ('CC(NCc1cccs1)c1ccc(OCc2nccn2C)cc1 (configuration not stated)', 'cytotoxicity at 70.5 h', '%', -4.31),
  ('COc1cccc(C2CCCN2Cc2nnnn2C2CC2)c1 (configuration not stated)', 'cytotoxicity at 70.5 h', '%', -3.76),
  ('CC(C)c1nc(C2CCCN2CCCc2nc3ccccc3o2)no1 (configuration not stated)', 'cytotoxicity at 70.5 h', '%', -12.9),
  ('O=S(=O)(N1CCC(n2cccc2)CC1)N1CCCC1c1ccco1 (configuration not stated)', 'cytotoxicity at 70.5 h', '%', -10.3),
  ('Cc1nc(CN(C)Cc2cnc(N3CCOCC3)s2)no1', 'cytotoxicity at 70.5 h', '%', 22.9),
  ('CC(C)(C)N1CC(C(=O)NCc2noc(Cc3ccccc3)n2)CC1=O (configuration not stated)', 'cytotoxicity at 70.5 h', '%', 21.2),
  ('CCOc1ccccc1CN(C)C(C)c1nc(-c2cccnc2)no1 (configuration not stated)', 'cytotoxicity at 70.5 h', '%', -3.75),
  ('Cc1ncc(CN)c(-c2cn(C)c3ccccc23)n1', 'cytotoxicity at 70.5 h', '%', -7.92),
  ('Cc1ccccc1C1(CNC(=O)N2CCC(CC(N)=O)CC2)CC1', 'cytotoxicity at 70.5 h', '%', -4.35);
